What binding signal was measured for each of the following?
Target: RELB subunit;p52 subunit (Homo sapiens;Homo sapiens, UniProt Q01201;Q00653 120-401;4-332)
Sequence 1: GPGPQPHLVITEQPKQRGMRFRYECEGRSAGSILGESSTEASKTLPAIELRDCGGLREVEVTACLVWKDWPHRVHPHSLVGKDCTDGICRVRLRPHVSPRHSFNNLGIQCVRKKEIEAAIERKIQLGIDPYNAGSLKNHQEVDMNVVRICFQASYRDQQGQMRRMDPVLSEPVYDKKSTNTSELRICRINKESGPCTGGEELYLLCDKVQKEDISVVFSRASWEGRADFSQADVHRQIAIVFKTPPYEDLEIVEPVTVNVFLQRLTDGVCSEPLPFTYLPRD
Sequence 2: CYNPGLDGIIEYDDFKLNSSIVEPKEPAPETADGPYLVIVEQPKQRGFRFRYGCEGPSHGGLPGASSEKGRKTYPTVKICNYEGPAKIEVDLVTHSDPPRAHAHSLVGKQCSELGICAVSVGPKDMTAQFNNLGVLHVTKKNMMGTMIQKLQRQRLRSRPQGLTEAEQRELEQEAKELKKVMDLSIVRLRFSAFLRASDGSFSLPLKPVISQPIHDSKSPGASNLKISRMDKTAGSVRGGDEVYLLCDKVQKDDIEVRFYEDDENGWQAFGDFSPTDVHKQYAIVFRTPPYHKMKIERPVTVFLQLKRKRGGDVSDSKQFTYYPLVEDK
Experiment: protein binding microarray; high values mean tight binding
Conditions: dsDNA, one strand shown
Numbers only, in z-score.

Provide binding signal for all items below, preserving their order.
1. AAGTACATCCC
2. AAGGTTATCCC

A)
[-0.549, -0.173]

* * *

Biological target: C-Rel subunit;p52 subunit (Homo sapiens;Homo sapiens, UniProt Q04864;Q00653 1-285;4-332)
Sequence 1: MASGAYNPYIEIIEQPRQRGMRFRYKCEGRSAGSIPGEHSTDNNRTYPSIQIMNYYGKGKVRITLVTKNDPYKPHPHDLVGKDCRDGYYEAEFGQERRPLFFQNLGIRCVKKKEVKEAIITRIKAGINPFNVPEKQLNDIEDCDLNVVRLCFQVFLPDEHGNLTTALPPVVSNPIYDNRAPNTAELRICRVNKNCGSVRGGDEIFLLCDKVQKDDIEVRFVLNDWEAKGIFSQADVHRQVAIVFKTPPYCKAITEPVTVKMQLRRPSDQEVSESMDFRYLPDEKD
Sequence 2: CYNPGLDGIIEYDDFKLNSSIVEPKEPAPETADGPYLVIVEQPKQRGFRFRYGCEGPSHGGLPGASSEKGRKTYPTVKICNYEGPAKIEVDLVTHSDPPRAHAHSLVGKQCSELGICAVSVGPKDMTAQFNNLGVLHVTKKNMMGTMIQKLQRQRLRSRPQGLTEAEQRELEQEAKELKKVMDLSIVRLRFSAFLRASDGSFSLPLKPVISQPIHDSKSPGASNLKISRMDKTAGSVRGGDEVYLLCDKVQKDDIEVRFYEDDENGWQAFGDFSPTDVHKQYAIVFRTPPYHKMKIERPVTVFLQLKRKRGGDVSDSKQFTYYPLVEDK
Experiment: protein binding microarray; high values mean tight binding
Conditions: dsDNA, one strand shown
# label = Y if binding signal >= -0.06 z-score else N

Q) Evaluate CAGGTCATCCT : binding signal at minimum -0.06 z-score?
A) N

Q) Is the recorded value of binding signal equal to or greater than -0.06 z-score for this sequence? GGATATGCCCT
A) N

Q) Test whether the sequence CGGATAATCCT records binding signal of -0.06 z-score or higher.
A) N

Q) Hi, just wondering whether GGGGTCGCCCC shows binding signal of -0.06 z-score or higher.
A) Y

Q) Could you verify whether the entry GGGTTCGTCCC shows binding signal of no less than -0.06 z-score?
A) Y
